# Test system: Salmonella enterica typhimurium
# assay-text: growth AUC normalised to DMSO control (fraction of control); higher = less growth inhibition, active = hit call of the paper;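 active = AUC significantly below DMSO controls by Student t-fit with adjusted P under 0.01; inactive = not significantly reduced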
# assay-setup: 20 µM
Where a name gives a salt, the structure may show the parent alone.
Thanks in advance; please answer with one of these: active, inactive

>  <molecule>
CCOC(=O)C1=C(COCCN)NC(C)=C(C(=O)OC)C1c1ccccc1Cl (stereo unspecified) [Amlodipine]

>  <label-class>
inactive

$$$$

Challenge: What outcome does the record of this test show for Cc1cccc(C)c1NC(=O)C1CCCCN1C (stereo unspecified) [Mepivacaine hydrochloride] ?
Response given: inactive

Challenge: Call for entry CC(=O)N[C@@H](CS)C(=O)O [Acetylcysteine] :
Response given: inactive

Challenge: For CN(C)CCOC(c1ccccc1)c1ccccc1 [Diphenhydramine hydrochloride] , which call appears in the assay record?
Response given: inactive

Challenge: Outcome? NCCCC(O)(P(=O)(O)O)P(=O)(O)O [Alendronate sodium]
Response given: inactive

Challenge: Hey, what did the test say about CC1(C)S[C@@H]2[C@H](NC(=O)[C@H](NC(=O)N3CCNC3=O)c3ccccc3)C(=O)N2[C@H]1C(=O)O [Azlocillin sodium salt] ?
Response given: active

Challenge: Check the results log: what was the call for CC(=O)O[C@H]1C[C@@H]2CC[C@@H]3[C@H](CC[C@@]4(C)[C@H]3C[C@H]([N+]3(C)CCCCC3)[C@@H]4OC(C)=O)[C@@]2(C)C[C@@H]1N1CCCCC1 [Vecuronium bromide] ?
Response given: inactive

Challenge: # lookup: test call for CC(=O)O[C@H]1C(=O)[C@@]2(C)[C@H]([C@H](OC(=O)c3ccccc3)[C@]3(O)C[C@H](OC(=O)[C@H](O)[C@@H](NC(=O)c4ccccc4)c4ccccc4)C(C)=C1C3(C)C)[C@]1(OC(C)=O)CO[C@@H]1C[C@@H]2O [Paclitaxel]
Response given: inactive

Challenge: Just curious, what result did CC(C(=O)O)c1cccc(Oc2ccccc2)c1 (stereo unspecified) [Fenoprofen calcium salt dihydrate] get here?
Response given: inactive

Challenge: Any idea what this test logged for CN1CCN2c3ccccc3Cc3ccccc3C2C1 (stereo unspecified) [Mianserine hydrochloride] ?
Response given: inactive

Challenge: # fetch the recorded call for CC[N+](C)(C)Cc1ccccc1Br [Bretylium tosylate] here
Response given: inactive

All figures here come from the supplement of paper PMC12350171.
